Target entity: human cloned 5-HT2A receptor (Homo sapiens)
Construct: expressed in transfected cells; host or cells: L929 cells
Sequence (P28223 whole entry): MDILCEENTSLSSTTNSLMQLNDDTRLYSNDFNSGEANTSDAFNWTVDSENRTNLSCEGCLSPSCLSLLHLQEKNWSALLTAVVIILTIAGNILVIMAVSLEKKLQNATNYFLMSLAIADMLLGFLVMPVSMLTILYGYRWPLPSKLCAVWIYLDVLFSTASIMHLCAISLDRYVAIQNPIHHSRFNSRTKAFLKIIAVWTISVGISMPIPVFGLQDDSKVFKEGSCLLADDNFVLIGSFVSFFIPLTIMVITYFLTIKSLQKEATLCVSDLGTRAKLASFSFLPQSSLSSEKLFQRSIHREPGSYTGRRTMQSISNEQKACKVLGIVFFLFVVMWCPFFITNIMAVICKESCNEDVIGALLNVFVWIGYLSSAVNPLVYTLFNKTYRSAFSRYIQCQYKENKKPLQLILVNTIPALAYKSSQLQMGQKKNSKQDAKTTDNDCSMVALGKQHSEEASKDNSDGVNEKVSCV
Procedure summary: In vitro binding affinity for 5-HT2A receptor (radioligand binding)
Conditions: h-5HT2A, human cloned 5-HT2A receptor, radioligand binding
pIC50: −log10 of the molar value.
Please enter Met where pIC50 is greater than or equal to 7, and Not met where it is lower.

• COc1ccc(OC(=O)N2CCN(CC3CC4=C(O3)c3cc(F)ccc3Cc3ccccc34)CC2)cc1 (centres unmarked) = Met
• O=C(Oc1ccccc1)N1CCN(CC2CC3=C(O2)c2cc(F)ccc2Cc2ccccc23)CC1 (centres unmarked) = Met
• CN(C[C@H]1CC2=C(O1)c1cc(F)ccc1Cc1ccccc12)C(=O)Oc1ccccc1 = Not met

Origin of measurements: patent US8022102B2
